Quick list: PGI d12 (relative PGI release) per entry.
Tested on: E. multilocularis metacestode vesicles
Experiment: Phosphoglucose isomerase (PGI) release assay (damage-marker release) on metacestode vesicles
Type: cell-based, Echinococcus multilocularis
Conditions: overview screen, 10 μM, singlets, 12 days, relative to 0.1 % Triton X-100, DMSO subtracted
Report the value in % with no unit label.

Lookup: Give the measured PGI d12 (relative PGI release) of Cc1ccn2c(C(=O)NCc3ccccc3)c(C)nc2c1 .
Found: -2.526

Lookup: What value of measured PGI d12 (relative PGI release) is listed for O=C(/C=C\n1cnc(-c2cc(C(F)(F)F)cc(C(F)(F)F)c2)n1)NNc1ccccn1 ?
Found: 0.9356

Lookup: Which measured PGI d12 (relative PGI release) value corresponds to CN(C)CC(=O)Nc1ccc2[nH]c(=O)c3ccccc3c2c1 ?
Found: -0.9318

Lookup: For the compound C[C@H]1CC[C@]2(NC1)O[C@H]1C[C@H]3[C@@H]4CC[C@H]5C[C@@H](O)CC[C@]5(C)[C@H]4CC[C@]3(C)[C@H]1[C@@H]2C.Cl , what PGI d12 (relative PGI release) is on record?
Found: -0.2652

Lookup: Looking for the measured PGI d12 (relative PGI release) of Cc1c(N)cccc1Cn1ccc(OCCc2cccs2)cc1=O , can you help?
Found: -14.0356

Lookup: What value of measured PGI d12 (relative PGI release) is listed for CCOC(=O)/C=C/[C@H](C[C@@H]1CCNC1=O)NC(=O)[C@H](CC)n1cccc(NC(=O)c2cc(C)on2)c1=O ?
Found: -19.6518

Lookup: Query (compound): N#CCN1C(=O)COc2cc(F)c(N3C(=O)c4ccccc4C3=O)cc21 ; field requested: PGI d12 (relative PGI release)
Found: -13.7258

Lookup: # query: PGI d12 (relative PGI release) of entry CCc1cc(O)c(Oc2ccc(C(N)=O)cc2F)cc1F
Found: -2.538

Lookup: What value of PGI d12 (relative PGI release) has been reported for the following compound? COc1ccc2cc3[n+](cc2c1OCCN(CCn1cncn1)Cc1ccc(F)cc1F)CCc1cc2c(cc1-3)OCO2
Found: 36.6613

Lookup: // returns reported PGI d12 (relative PGI release) for input CC1(C)CC(NC(=O)C(=O)Nc2ccc(Cl)cc2)CC(C)(C)N1
Found: 0.4399

Lookup: Entry under review: O=c1cc(NCCCN[C@@H]2CCOc3c(Br)cc(Br)cc32)[nH]c2ccsc12 . Reported PGI d12 (relative PGI release)?
Found: 54.0946

Lookup: Would you kindly share the measured PGI d12 (relative PGI release) for Cl.NC1(C(=O)O)CCP(=O)(O)CC1 (centres unmarked) ?
Found: -13.1352

Lookup: Any idea what PGI d12 (relative PGI release) was measured for C[C@@H]1O[C@@H]1P(=O)(O)O ?
Found: -11.1824

Lookup: Fill blank: measured PGI d12 (relative PGI release) of the compound CC(C)c1cc2c(cc1S(=O)(=O)O)[C@@]1(C)CCC[C@@](C)(C(=O)O)[C@@H]1CC2 is ____.
Found: -3.32

Lookup: Give its PGI d12 (relative PGI release) value. Item: CC(C)c1ccc(COc2cccc(-c3cc([S+](C)[O-])c(C#N)c(=O)[nH]3)c2)cc1 (centres unmarked)
Found: -9.364

Lookup: Any idea what its PGI d12 (relative PGI release) is? The compound is CC(=O)N[C@H](C)C(=O)N[C@H](Cc1ccccc1)C(=O)O
Found: -2.372

Lookup: Please report the recorded PGI d12 (relative PGI release) for Nc1nc(F)nc2c1ncn2[C@@H]1O[C@H](CO)[C@@H](O)[C@@H]1O .
Found: 1.228

Origin of measurements: paper PMC12410356
